target: T1, human PD-1 expressed on cells (human, UniProt Q15116 25-288); test: flow cytometry on activated hCD8 T cells from human blood, 2nd-hIgG-PE detection; 2nd-hIgG-PE alone 1.73
T1 construct: whole, on cells; also called hPD-1; 293 cell line stably expressing human PD-1
T1 sequence (Q15116 25-288): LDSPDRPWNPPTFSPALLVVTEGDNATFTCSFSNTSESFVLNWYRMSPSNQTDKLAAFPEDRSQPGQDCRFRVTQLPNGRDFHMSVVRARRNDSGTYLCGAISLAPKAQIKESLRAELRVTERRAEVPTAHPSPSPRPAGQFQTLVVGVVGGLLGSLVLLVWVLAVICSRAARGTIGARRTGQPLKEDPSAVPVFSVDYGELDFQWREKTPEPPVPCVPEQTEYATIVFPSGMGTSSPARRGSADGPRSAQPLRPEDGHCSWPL
Items are presented alongside their recorded percent of cells in the positive quadrant.
Quick reminder: number only, in %, skip the unit.

1) T15-03 (antibody, V domains shown) VH: EVQLVESGGGLVKPGGSLRLSCAASGFTFSSFGMSWVRQAPGKGLELVATIYSNGDYTYYPDSVKGRFTVSRDNAKNSLYLQMNSLRAEDTAVYYCARYYGNYGGYFDYWGQGTLVTVSS VL: AIQMTQSPSSLSASVGDRVTITCKASQSVSNDVAWYQQKPGKAPKLLIYYAYMRYTGVPSRFSGSGSGTDFTLTISSLQPEDFATYYCHQDYSSPPTFGGGTKVEIK ... 10.7

What the record says about T14-04 (antibody, V domains shown) VH: EVQLVESGGGLVQPGGSLRLSCAASGFVFSNYDMSWVRQAPGKGLEWVAYITIGGGTTYYPDTVKGRFTISRDNAKNSLYLQMNSLRAEDTAVYYCARWRYDPLFAMDYWGQGTTVTVSS VL: DIVLTQTPLSLSVTPGQPASISCRASESVDNYGISFMNWFLQKPGQPPQLLIYAASNQGSGVPDRFSGSGSGTDFTLKISRVEAEDVGVYYCQQSKEVPWTFGQGTKVEIK : percent of cells in the positive quadrant is 17.1
